Biological target: CRP (Homo sapiens)
Assay: MIRA immunoturbidimetric assay
Assay type: binding
Design: The final concentrations were 0.73 μM native pentameric CRP; from tissue
// values below are reported IC50
parameterMeasured: IC50 (µM)

- compound: "O=C(NC(C(=O)O)[C@H]1CN2CCC1CC2)c1cccc(C(=O)NC(C(=O)O)[C@H]2CN3CCC2CC3)c1 (some centres unmarked) [Compound P2B-E]"
  outputUnit: "µM"
  dataValue: 2.02
- compound: "O=C(NC(C(=O)O)[C@H]1CN2CCC1CC2)c1ccc(C(=O)NC(C(=O)O)[C@H]2CN3CCC2CC3)cc1 (some centres unmarked) [Compound P2B-B]"
  outputUnit: "µM"
  dataValue: 0.6

---

Test: In vivo clearance of ligand
Conditions: male, C57BL/6, mouse, serum, 0.5 mg; mice, intravenous; read-out: half-life (t1/2) of ligand in mouse circulation
Method: (i) Ligand (0.5 mg/animal) dissolved in PBS or saline (200 μl) was injected intravenously into the tail vein of six male; 23-27 week old wild-type C57BL/6 mice. Up to two blood samples plus a terminal sample per mouse were collected at each time point up to 180 minutes. […] (iv) Ligand concentrations were measured against an extracted standard curve and were plotted using Sigmaplot (v14) and fitted to a 2-parameter exponential decay.
parameterMeasured: half-life (min)

- compound: "C[N+](C)(C)CCOP(=O)([O-])OCCCCCCOP(=O)([O-])OCC[N+](C)(C)C"
  dataValue: 16.1
- compound: "C[N+](C)(C)CCOP(=O)(O)OCCCCCCCCOP(=O)(O)OCC[N+](C)(C)C [BPC8, 1,8-bis(phosphocholine)-octane, reference compound]"
  dataValue: 15.4

---

Target: CRP (Homo sapiens, UniProt P02741)
Sequence (P02741 19-224): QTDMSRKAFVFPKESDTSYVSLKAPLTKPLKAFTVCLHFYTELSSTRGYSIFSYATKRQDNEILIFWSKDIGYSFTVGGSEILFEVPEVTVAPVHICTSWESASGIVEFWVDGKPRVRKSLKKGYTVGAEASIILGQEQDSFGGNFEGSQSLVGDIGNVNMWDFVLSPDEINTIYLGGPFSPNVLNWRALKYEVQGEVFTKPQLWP
Experiment: Immobilised phosphocholine plate assay (125I-CRP binding)
Design: The final concentrations were 0.73 μM native pentameric CRP; from tissue
Details: read-out: IC50 for inhibition of 125I-CRP binding to immobilised phosphocholine
parameterMeasured: log10 of IC50 (log10 of the value in µM)

- compound: "C[N+](C)(C)CCOP(=O)(O)OCCCCCCCCOP(=O)(O)OCC[N+](C)(C)C [BPC8, 1,8-bis(phosphocholine)-octane, reference compound]"
  parameterMeasured: "log10 of IC50"
  dataValue: 0.34
- compound: "O=P(O)(OCCCCCCCCCOP(=O)(O)O[C@@H]1CN2CCC1CC2)O[C@@H]1CN2CCC1CC2"
  parameterMeasured: "log10 of IC50"
  dataValue: -0.80
- compound: "O=P(O)(OCCCCCCCCOP(=O)(O)O[C@@H]1CN2CCC1CC2)O[C@@H]1CN2CCC1CC2"
  parameterMeasured: "log10 of IC50"
  dataValue: -0.82
- compound: "O=P(O)(OCCCCCCCCCCOP(=O)(O)O[C@@H]1CN2CCC1CC2)O[C@@H]1CN2CCC1CC2"
  parameterMeasured: "log10 of IC50"
  dataValue: -0.74
- compound: "O=P(O)(OCCCCCCCOP(=O)(O)OC1CN2CCC1CC2)OC1CN2CCC1CC2 (stereo not drawn)"
  parameterMeasured: "log10 of IC50"
  dataValue: -0.74
- compound: "O=P(O)(OCCCCCCOP(=O)(O)O[C@@H]1CN2CCC1CC2)O[C@@H]1CN2CCC1CC2"
  parameterMeasured: "log10 of IC50"
  dataValue: -0.55

Taken from patent US20230118142A1.
